Cited source: paper PMC5700166

Attribute: binding signal
Biological target: GST-Dm-Relish (Drosophila melanogaster, UniProt Q94527 99-473)
Sequence: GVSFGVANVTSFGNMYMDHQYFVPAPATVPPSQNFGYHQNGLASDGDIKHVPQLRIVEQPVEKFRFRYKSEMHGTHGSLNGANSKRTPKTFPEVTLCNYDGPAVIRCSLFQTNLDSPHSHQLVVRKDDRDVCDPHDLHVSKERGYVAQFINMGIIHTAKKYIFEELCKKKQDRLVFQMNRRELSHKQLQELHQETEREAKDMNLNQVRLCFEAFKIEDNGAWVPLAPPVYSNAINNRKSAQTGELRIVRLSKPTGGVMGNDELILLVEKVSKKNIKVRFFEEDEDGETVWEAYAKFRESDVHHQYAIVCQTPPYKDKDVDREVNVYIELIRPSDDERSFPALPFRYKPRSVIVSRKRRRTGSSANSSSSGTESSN
Experiment: protein-binding microarray (PBM); PBM: ~300 nM protein, 6 mM HEPES pH 7.8, 80 mM KCl, 0.5 mM EDTA, 0.5 mM EGTA, 6% glycerol, 35 ng/ul poly-dIdC, 1% milk, 1 h, room temperature; Ap Aiptasia and Nv Nematostella (sea anemones) / Co Capsaspora / Aq Amphimedon (sponge) / Dm Drosophila / Hu human; RHD is the Rel homology domain; high values mean tight binding
Conditions: dsDNA, one strand shown
Field format: number, assumed z-score, no unit text.

| sequence.chain | property.name | value.observed |
| --- | --- | --- |
| CCGATTAACATCAGGGGATCCCCTGATGTTAATCGGGTCTTGATTCGCTTGACGCTGCTG | binding signal | 10.8 |
| CCGATTAACATCAGGGATTCCCATGATGTTAATCGGGTCTTGATTCGCTTGACGCTGCTG | binding signal | 10 |
| CCGATTAACATCAAAGCTTCCCCTGATGTTAATCGGGTCTTGATTCGCTTGACGCTGCTG | binding signal | 3.8 |
| CCGATTAACATCAGAAAAATCCCTGATGTTAATCGGGTCTTGATTCGCTTGACGCTGCTG | binding signal | 9.03 |
| CCGATTAACATCAATTTCCCGTATGATGTTAATCGGGTCTTGATTCGCTTGACGCTGCTG | binding signal | 1.58 |
| CCGATTAACATCACGGAAACCCCTGATGTTAATCGGGTCTTGATTCGCTTGACGCTGCTG | binding signal | 7.12 |
| CCGATTAACATCAAAAATTCCTATGATGTTAATCGGGTCTTGATTCGCTTGACGCTGCTG | binding signal | 1.74 |
| CCGATTAACATCAGGGGATTATATGATGTTAATCGGGTCTTGATTCGCTTGACGCTGCTG | binding signal | 6.72 |
| CCGATTAACATCACGTAAATCCCTGATGTTAATCGGGTCTTGATTCGCTTGACGCTGCTG | binding signal | 7.13 |
| CCGATTAACATCAGGGGGTAACATGATGTTAATCGGGTCTTGATTCGCTTGACGCTGCTG | binding signal | 2.49 |

Fill in: binding signal of CCGATTAACATCAATATACCCCCTGATGTTAATCGGGTCTTGATTCGCTTGACGCTGCTG is ___
3.69

Follow-up item: CCGATTAACATCAAACATTCCCCTGATGTTAATCGGGTCTTGATTCGCTTGACGCTGCTG
4.9
